# Tested on: AR mRNA
# method: AR mRNA in LnCaP cells by free uptake (hAR_LTS00943)
# Assay type: cell-based, human
# conditions: 10 μM, 24 hrs
Oligonucleotides are written 5' to 3', each unit as a sugar letter and its base; * is a phosphorothioate linkage, no mark a phosphodiester; rarer units and linkages stand in square brackets, end groups in braces. Plain capitals give the bases only. e = 2'-O-(2-methoxyethyl) (MOE); k = constrained ethyl (cEt); [5mC] = 5-methylcytosine; d = 2'-deoxy (DNA)
Respond with fulfilled for Percent inhibition of AR mRNA values of 60% and above, not fulfilled for values below.

substance | groupLabel
579667 (antisense eT*kT*kG*eA*eT*kT*kT*dA*dA*dT*dG*dG*dT*dT*kG*k[5mC]) [compound 579667] | not fulfilled
569227 (antisense eT*eG*kA*kT*kT*dT*dA*dA*dT*dG*dG*dT*kT*kG*k[5mC]*eA) [compound 569227] | not fulfilled
579666 (antisense eT*kG*kA*eT*eT*kT*kA*dA*dT*dG*dG*dT*dT*dG*k[5mC]*kA) [compound 579666] | fulfilled
584468 (k[5mC]*kA*kT*dT*dG*dT*dA*d[5mC]*dT*dA*dT*dG*d[5mC]*k[5mC]*kA*kG) [compound 584468] | fulfilled
584269 (k[5mC]*k[5mC]*kT*dT*dA*dT*dG*dG*dA*dT*dG*d[5mC]*dT*kG*k[5mC]*kT) [compound 584269] | not fulfilled
579671 (antisense eT*kT*kG*eA*kT*kT*dT*dA*dA*dT*dG*dG*dT*kT*kG*k[5mC]) [compound 579671] | fulfilled
569221 (antisense eT*eG*kA*kT*kT*dT*dA*dA*dT*dG*dG*dT*dT*kG*k[5mC]*kA) [compound 569221] | fulfilled

====

# Test system: AR mRNA
# method: Dose-dependent antisense inhibition of human AR in HuVEC cells (electroporation, qRT-PCR RTS3559, IC50)
# Format: cell-based
# conditions: HuVEC cells, electroporation, 46.9 nM ASO
Oligonucleotides are written 5' to 3', each unit as a sugar letter and its base; * is a phosphorothioate linkage, no mark a phosphodiester; rarer units and linkages stand in square brackets, end groups in braces. Plain capitals give the bases only. k = constrained ethyl (cEt); [5mC] = 5-methylcytosine; d = 2'-deoxy (DNA)
Respond with MET for inhibition of AR mRNA at 46.9 nM values of 20% and above, NOT MET for values below.

substance | targetOrTestSystem | groupLabel
586225 (kG*kT*kT*kG*kA*dT*dT*dT*dA*dA*dT*dG*dG*kT*kT*kG; antisense) [compound 586225] | AR mRNA | NOT MET
586224 (kT*kT*kG*kA*kT*dT*dT*dA*dA*dT*dG*dG*dT*kT*kG*k[5mC]; antisense) [compound 586224] | AR mRNA | MET
586124 (kG*kA*kT*dT*dT*dA*dA*dT*dG*dG*dT*dT*dG*k[5mC]*kA*kA; further chemistry not given here) [compound 586124] | AR mRNA | MET
549458 (kG*kT*kT*dG*dA*dT*dT*dT*dA*dA*dT*dG*dG*kT*kT*kG) [compound 549458] | AR mRNA | NOT MET
549372 (kA*kA*kG*dT*dT*dG*dT*dA*dG*dT*dA*dG*dT*k[5mC]*kG*k[5mC]) [compound 549372] | AR mRNA | NOT MET

====

# System: prostate-specific antigen (PSA) mRNA
# method: PSA mRNA levels in LMR20 cells
# Format: cell-based, human
# conditions: LMR20 cells, R1881 10 nM 72 hrs, ASO 1.0 μM
Oligonucleotides are written 5' to 3', each unit as a sugar letter and its base; * is a phosphorothioate linkage, no mark a phosphodiester; rarer units and linkages stand in square brackets, end groups in braces. Plain capitals give the bases only. e = 2'-O-(2-methoxyethyl) (MOE); l = locked nucleic acid (LNA); k = constrained ethyl (cEt); [5mC] = 5-methylcytosine; d = 2'-deoxy (DNA)
endpointName: PSA mRNA levels (% baseline value) after treatment with R1881

substance | numericReadout
560131 (antisense kT*kT*kG*dA*dT*dT*dT*dA*dA*dT*dG*dG*kT*kT*kG*e[5mC]) [compound 560131] | 44
549458 (kG*kT*kT*dG*dA*dT*dT*dT*dA*dA*dT*dG*dG*kT*kT*kG) [compound 549458] | 50
554221 (ACCAAGTTTCTTCAGC; sugars from the 5' end l3 d10 l3, all phosphorothioate, methylation of C not given here) [compound 554221] | 80
569236 (antisense eT*kG*kA*kT*dT*dT*dA*dA*dT*dG*dG*kT*kT*kG*e[5mC]*eA) [compound 569236] | 57

====

Reported percent inhibition of AR by item:
# System: AR mRNA
# method: Dose-dependent antisense inhibition of human AR in HuVEC cells (electroporation, qRT-PCR RTS3559, IC50)
# Assay type: cell-based
# conditions: 500.0 nM; HuVEC, ~16 h; Table 12
# Experimental: After a treatment period of approximately 16 hours, RNA was isolated from the cells and AR mRNA levels were measured by quantitative real-time PCR. Human AR primer probe set RTS3559 was used to measure mRNA levels. AR mRNA levels were adjusted according to total RNA content, as measured by RIBOGREEN®. […] After a treatment period of approximately 16 hours, RNA was isolated from the cells and AR mRNA levels were measured by quantitative real-time PCR. […]
Oligonucleotides are written 5' to 3', each unit as a sugar letter and its base; * is a phosphorothioate linkage, no mark a phosphodiester; rarer units and linkages stand in square brackets, end groups in braces. Plain capitals give the bases only. e = 2'-O-(2-methoxyethyl) (MOE); k = constrained ethyl (cEt); [5mC] = 5-methylcytosine; d = 2'-deoxy (DNA)
endpointName: percent inhibition of AR (%)

substance | numericReadout
569217 (antisense eG*kT*kT*kG*dA*dT*dT*dT*dA*dA*dT*dG*kG*kT*kT*eG) [compound 569217] | 64
569221 (antisense eT*eG*kA*kT*kT*dT*dA*dA*dT*dG*dG*dT*dT*kG*k[5mC]*kA) [compound 569221] | 57
549458 (kG*kT*kT*dG*dA*dT*dT*dT*dA*dA*dT*dG*dG*kT*kT*kG) [compound 549458] | 38
569214 (antisense kG*kG*kT*dT*dG*dA*dT*dT*dT*dA*dA*dT*kG*kG*kT*eT) [compound 569214] | 62

====

# conditions: cynomolgus monkey, in vivo, sc, 40 mg/kg
Reported Spleen weight by item:
endpointName: Spleen weight (g)

substance | numericReadout
ISIS 584149: antisense compound targeted to human AR (GTCAATATCAAAGCAC; 3-10-3 (S)-cEt gapmer, further chemistry not given here) | 2.2
TGATTTAATGGTTGCA [ISIS 569216] (cEt/MOE gapmer chemistry, further chemistry not given here) | 4.9
TTGATTTAATGGTTGC [ISIS 579671] (cEt/MOE gapmer chemistry, further chemistry not given here) | 3.2
ISIS 584163: antisense compound targeted to human AR (GAACATTATTAGGCTA; 3-10-3 (S)-cEt gapmer, further chemistry not given here) | 3.2
TGATTTAATGGTTGCA [ISIS 569221] (cEt/MOE gapmer chemistry, further chemistry not given here) | 3.3
TTGATTTAATGGTTGC [ISIS 560131] (MOE and (S)-cEt gapmer chemistry, further chemistry not given here) | 2.5

====

# Test system: V7 splice variant of the AR mRNA
# method: AR V7 splice variant mRNA in CWR22-RV1 cells (RT-PCR SYBR Green)
# Assay type: cell-based, human
# conditions: RNAiMax, dose 16.7 nM, 6 days
Oligonucleotides are written 5' to 3', each unit as a sugar letter and its base; * is a phosphorothioate linkage, no mark a phosphodiester; rarer units and linkages stand in square brackets, end groups in braces. Plain capitals give the bases only. e = 2'-O-(2-methoxyethyl) (MOE); k = constrained ethyl (cEt); [5mC] = 5-methylcytosine; d = 2'-deoxy (DNA)
Respond with 1.0 for Percent inhibition of AR splice variant, V7 values of 7% and above, 0.0 for values below.

biosequence | targetOrTestSystem | groupLabel
GTTGATTTAATGGTTG (all phosphorothioate, sugars by position not given here; further chemistry not fully specified) [ISIS 549458] | V7 splice variant of the AR mRNA | 1.0
AAGTTGTAGTAGTCGC (kA*kA*kG*dT*dT*dG*dT*dA*dG*dT*dA*dG*dT*k[5mC]*kG*k[5mC]) [ISIS 549372, targets exon 1] | V7 splice variant of the AR mRNA | 1.0
CTAAACTTCCCGTGGC (k[5mC]*kT*kA*dA*dA*d[5mC]*dT*dT*d[5mC]*d[5mC]*d[5mC]*dG*dT*kG*kG*k[5mC]) [ISIS 549434, targets 3'-end of exon 8] | V7 splice variant of the AR mRNA | 0.0
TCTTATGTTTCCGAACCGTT (sugars from the 5' end e5 d10 e5, backbone and methylation of C not given here) [ISIS 347526, reference compound] | V7 splice variant of the AR mRNA | 0.0
